Recorded measurements of melting point, one per entry
Readout Name: melting point (°C)

- O=C(Nc1ccccn1)Nc1cccc2c1C1CC3(CCN1C2=O)SCCS3 (stereo not drawn): 242
- O=C1c2cccc(NC(=S)Nc3cnccn3)c2C2CCCCN12 (stereo not drawn): 204
- O=C(Nc1cnccn1)Nc1cccc2c1C1C[C@@H](O)CCN1C2=O (stereo partly drawn): 250
- COc1ccc(NC(=O)Nc2cccc3c2C2CCCCN2C3=O)cn1 (stereo not drawn): 175
- O=C(NCc1ccccc1)Nc1cccc2c1C1CCCCN1C2=O (stereo not drawn): 183
- Cn1ccc(NC(=O)Nc2cccc3c2C2CC4(CCN2C3=O)SCCS4)n1 (stereo not drawn): 135
- CC(C)(C)OC(=O)n1ccc(NC(=O)Nc2cccc3c2C2CCCCN2C3=O)n1 (stereo not drawn): 136
- O=C(Nc1cc[nH]n1)Nc1cccc2c1C1CC3(CCN1C2=O)SCCS3 (stereo not drawn): 184
- O=C(Nc1cccc(Br)n1)Nc1cccc2c1C1CC3(CCN1C2=O)SCCS3 (stereo not drawn): 170
- O=C(Nc1cnccn1)Nc1cccc2c1C1CC3(CCN1C2=O)SCCS3 (stereo not drawn): 236
- O=C(Nc1ccccc1)Nc1cccc2c1C1CCCCN1C2=O (stereo not drawn): 172
- O=C(Nc1csc(-c2ccncc2)n1)Nc1cccc2c1C1CCCCN1C2=O (stereo not drawn): 152
